measurement_target: CSP1 (Chilo suppressalis, UniProt V9PY22)
Sequence (V9PY22 18-122): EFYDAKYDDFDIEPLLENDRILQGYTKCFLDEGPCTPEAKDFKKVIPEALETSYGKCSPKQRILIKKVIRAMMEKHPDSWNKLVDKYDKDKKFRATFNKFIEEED
Type: binding
conditions_used: pH 7.4, read-out: CSP1 Intensity %
property_name: activity at 30 µM (%)

compound | property_name | numeric_value
CCCCCC(C)O (centres unmarked) | activity at 30 µM | 48.9
CCCCCCCCCCCCCC(C)=O | activity at 30 µM | 27.9
C[C@@H]1CC[C@H]2C(C)(C)[C@H]3C[C@@]12CC[C@@]3(C)O [(+)-Cedrol] | activity at 30 µM | 47.2
CCCCCCCCCCCC(C)=O | activity at 30 µM | 24.8
O=Cc1ccccc1 | activity at 30 µM | 34.2
CCCCCC(C)=O | activity at 30 µM | 49.3
CCCCCCCCC=O | activity at 30 µM | 74.1
CCCCCCO | activity at 30 µM | 64
CCCCC/C=C\C/C=C\CCCCCCCC(=O)O | activity at 30 µM | 55.6
CC=CC=CCO | activity at 30 µM | 85.8
OCc1ccccc1 | activity at 30 µM | 67.5
CCCCCCCC/C=C\CCCCCCCC(=O)O | activity at 30 µM | 58.9
CC1=CC[C@H](C(C)C)C=C1 | activity at 30 µM | 73
CCCCCCCCCCCCCCCC(=O)O | activity at 30 µM | 78.2
